Target: Xanthine oxidase (XO; from bovine milk) (Bos taurus)
Construct: Xanthine oxidase (XO; from bovine milk); purchased Sigma-Aldrich; host or cells: bovine milk
Experiment: XO-catalyzed 6-mercaptopurine oxidation (6-thiouric acid formation), HPLC
Type: biochemical
Conditions: substrate 6MP 5 μM; inhibitor 0–20 μM; read-out: IC50(6MP)
quantity-kind: IC50 (nM)

compound | comparison-sign | observed
O=c1cc(-c2ccc(O)c(O)c2)oc2cc(O)cc(O)c12 [Luteolin, 5,7,3′,4′-tetrahydroxyflavone] | = | 270
O=c1cc(-c2ccc(O)cc2)oc2cc(O)cc(O)c12 [Apigenin, 5,7,4’-trihydroxyflavone] | = | 90
O=c1cc(-c2ccccc2)oc2cc(OS(=O)(=O)O)cc(O)c12 [Chrysin-7-sulfate, chrysin-7-sulfate] | = | 2230
COc1cc(-c2oc3cc(O)ccc3c(=O)c2O)ccc1O | = | 1190
O=C(O)[C@H]1O[C@@H](Oc2cc(O)c3c(=O)cc(-c4ccccc4)oc3c2)[C@H](O)[C@@H](O)[C@@H]1O [Chrysin-7-glucuronide, chrysin-7-glucuronide] | > | 20000
O=c1c(O)c(-c2ccc(O)c(O)c2)oc2cc(O)ccc12 [Fisetin, 3,7,3′,4′-tetrahydroxyflavone] | = | 1100

====

Molecular target: Xanthine oxidase (XO; from bovine milk) (Bos taurus, UniProt P80457)
Construct: Xanthine oxidase (XO; from bovine milk); purchased Sigma-Aldrich; host or cells: bovine milk
Sequence (P80457 whole entry): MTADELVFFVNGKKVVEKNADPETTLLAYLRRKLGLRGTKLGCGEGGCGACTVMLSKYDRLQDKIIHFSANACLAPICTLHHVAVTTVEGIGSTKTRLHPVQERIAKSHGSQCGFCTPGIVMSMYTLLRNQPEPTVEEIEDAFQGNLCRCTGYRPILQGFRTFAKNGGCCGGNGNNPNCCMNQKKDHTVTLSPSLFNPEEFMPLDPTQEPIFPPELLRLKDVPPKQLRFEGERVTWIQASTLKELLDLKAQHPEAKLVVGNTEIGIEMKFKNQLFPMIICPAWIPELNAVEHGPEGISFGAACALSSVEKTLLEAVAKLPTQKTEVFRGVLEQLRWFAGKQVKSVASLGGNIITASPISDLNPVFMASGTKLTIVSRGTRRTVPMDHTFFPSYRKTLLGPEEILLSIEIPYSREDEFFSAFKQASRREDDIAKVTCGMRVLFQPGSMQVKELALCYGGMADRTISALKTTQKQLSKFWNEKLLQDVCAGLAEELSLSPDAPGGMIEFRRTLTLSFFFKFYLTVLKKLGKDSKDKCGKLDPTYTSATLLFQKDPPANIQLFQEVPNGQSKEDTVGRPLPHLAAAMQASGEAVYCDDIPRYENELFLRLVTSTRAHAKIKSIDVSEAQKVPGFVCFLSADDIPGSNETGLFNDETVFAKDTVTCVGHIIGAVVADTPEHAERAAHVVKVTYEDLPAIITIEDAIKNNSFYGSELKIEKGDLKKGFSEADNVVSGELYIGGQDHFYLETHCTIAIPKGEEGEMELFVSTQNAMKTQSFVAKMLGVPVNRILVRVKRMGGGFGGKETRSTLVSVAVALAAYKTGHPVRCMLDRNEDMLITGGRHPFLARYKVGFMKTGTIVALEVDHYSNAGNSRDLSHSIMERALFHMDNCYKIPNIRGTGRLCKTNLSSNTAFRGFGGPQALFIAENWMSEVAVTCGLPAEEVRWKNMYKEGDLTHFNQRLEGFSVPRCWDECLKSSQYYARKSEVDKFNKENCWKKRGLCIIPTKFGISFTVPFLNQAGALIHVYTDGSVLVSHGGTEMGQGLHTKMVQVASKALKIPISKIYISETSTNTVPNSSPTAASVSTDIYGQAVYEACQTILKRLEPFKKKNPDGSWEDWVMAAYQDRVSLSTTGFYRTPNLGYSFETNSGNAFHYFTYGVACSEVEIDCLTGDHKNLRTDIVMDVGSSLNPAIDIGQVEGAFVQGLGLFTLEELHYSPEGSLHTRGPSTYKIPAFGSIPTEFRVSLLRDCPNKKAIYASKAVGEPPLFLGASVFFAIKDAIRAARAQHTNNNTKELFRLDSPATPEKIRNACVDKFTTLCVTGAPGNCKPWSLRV
Assay: XO-catalyzed 6-mercaptopurine oxidation (6-thiouric acid formation), HPLC
Assay type: biochemical
quantity-kind: IC50

compound | observed
O=c1cc(-c2ccccc2)oc2cc(O)cc(O)c12 [Chrysin, 5,7-dihydroxyflavone] | 220 nM

====

Biological target: Xanthine oxidase (XO; from bovine milk) (Bos taurus, UniProt P80457)
Construct: Xanthine oxidase (XO; from bovine milk); purchased Sigma-Aldrich; host or cells: bovine milk
Assay: XO-catalyzed xanthine oxidation (uric acid formation), HPLC
Type: biochemical
Conditions: ratio of IC50 values of xanthine and 6MP assays
quantity-kind: IC50 (xanthine)/IC50 (6MP)

compound | system | observed
O=c1c(O)c(-c2ccc(O)c(O)c2)oc2cc(O)ccc12 [Fisetin, 3,7,3′,4′-tetrahydroxyflavone] | Xanthine oxidase (XO; from bovine milk) (Bos taurus, UniProt P80457) | 0.78
O=c1cc(-c2ccccc2)oc2cc(O)cc(O)c12 [Chrysin, 5,7-dihydroxyflavone] | Xanthine oxidase (XO; from bovine milk) (Bos taurus, UniProt P80457) | 3.18
COc1cc(-c2oc3cc(O)ccc3c(=O)c2O)ccc1O | Xanthine oxidase (XO; from bovine milk) (Bos taurus, UniProt P80457) | 0.57
O=c1cc(-c2ccc(O)c(O)c2)oc2cc(O)cc(O)c12 [Luteolin, 5,7,3′,4′-tetrahydroxyflavone] | Xanthine oxidase (XO; from bovine milk) (Bos taurus, UniProt P80457) | 0.59
O=c1cc(-c2ccc(O)cc2)oc2cc(O)cc(O)c12 [Apigenin, 5,7,4’-trihydroxyflavone] | Xanthine oxidase (XO; from bovine milk) (Bos taurus, UniProt P80457) | 3.00
